assay.explanation: Drug level in mouse plasma at 32 mg/kg, po after 0.5 hr
Format: ADME, organism-based
Design: dose 32 mg/kg, route oral
Below, each of the molecules is paired with its reported concentration at 0.5 h value.

# molecule, units.of.measure, censor.symbol, concentration at 0.5 h
data = [
    ("O=c1[nH]c(C2=C[C@@H](N3CCC(c4ccccc4)CC3)CC2)nc2c(Cl)cccc12", "ng/mL", "=", 8700),
    ("O=c1[nH]c(CCCN2CC=C(c3ccc(F)cc3)CC2)nc2c(Cl)cccc12", "ng/mL", "=", 1900),
    ("O=c1[nH]c(C2=C[C@@H](N3CC=C(c4ccccc4)CC3)CC2)nc2c(Cl)cccc12", "ng/mL", "=", 17100),
    ("O=c1[nH]c(CCCN2CCC(c3ccccc3)CC2)nc2c(Cl)cccc12", "ng/mL", "=", 12500),
    ("O=c1[nH]c(C2=CC(N3CCN(c4ccc(Cl)cc4)CC3)CC2)nc2ccccc12 (stereo not drawn)", "ng/mL", ">", 20100),
    ("O=c1[nH]c(C2=CC(N3CC=C(c4ccc(F)cc4)CC3)CC2)nc2c(Cl)cccc12 (stereo not drawn)", "ng/mL", "=", 15200),
    ("O=c1[nH]c(C2=C[C@@H](N3CCC(c4ccc(F)cc4)CC3)CC2)nc2c(Cl)cccc12", "ng/mL", "=", 13600),
    ("O=c1[nH]c(CCCN2CC=C(c3ccccc3)CC2)nc2c(Cl)cccc12", "ng/mL", "=", 1300),
]
